Test system: P388 leukemia ip, CD2F1 mice, survival T/C
measurementDescription: NCI In Vivo Anticancer Drug Screen. Data for tumor model P388 Leukemia (intraperitoneal) in CD2F1 (CDF1) mice
measurementSetup: endpoint: median survival time; dose: 200.0 mg/kg/injection; schedule: Q01DX009 (ip); vehicle: saline; higher = longer survival
Inconclusive results and toxic doses are left out.
Quick reference for T/C among some molecules

CC1=C(C)NC(C)=C(C)N1 tested on P388 leukemia ip, CD2F1 mice, survival T/C gave T/C: 97 % of control

CSc1cccnc1SC tested on P388 leukemia ip, CD2F1 mice, survival T/C gave T/C: 92 % of control

====

Quick reference for T/C among some compounds
Tested on: P388 leukemia ip, CD2F1 mice, survival T/C
measurementDescription: NCI In Vivo Anticancer Drug Screen. Data for tumor model P388 Leukemia (intraperitoneal) in CD2F1 (CDF1) mice
measurementSetup: endpoint: median survival time; dose: 120.0 mg/kg/injection; schedule: Q01DX005 (ip); vehicle: saline with Tween-80; higher = longer survival
Inconclusive results and toxic doses are left out.

Answered examples (5):
For this compound ( COC(=O)c1cc(C)c(C)cc1NC1OC(CO)C(O)C1O (stereo unspecified) ), measured T/C is 95 % of control

For this compound ( CC(=O)OCCOCn1cc(C)[n+]([O-])nc1=O ), measured T/C is 94 % of control

For this compound ( CC1C2C=CC1C(c1c3ccc(=O)cc-3oc3cc(O)ccc13)C2C(=O)O (stereo unspecified) ), measured T/C is 100 % of control

For this compound ( COc1ccc(C(c2c(O)c3ccccc3oc2=O)c2c(O)c3ccccc3oc2=O)c(OC)c1 ), measured T/C is 98 % of control

For this compound ( O=C(Cc1ccc2c(c1)OCO2)c1ccc(O)cc1O ), measured T/C is 105 % of control

Next compound, T/C to be filled in.
For this compound ( C1CCCc2c(-c3n[nH]c4c3CCCCCC4)n[nH]c2CC1 ), measured T/C is 95 % of control

====

Test system: P388 leukemia ip, CD2F1 mice, survival T/C
measurementDescription: NCI In Vivo Anticancer Drug Screen. Data for tumor model P388 Leukemia (intraperitoneal) in CD2F1 (CDF1) mice
measurementSetup: endpoint: median survival time; dose: 50.0 mg/kg/injection; schedule: Q01DX009 (ip); vehicle: saline with Tween-80
Toxic doses and inconclusive results are not listed. The calls were made as follows: active = survival T/C of 150% or more; inactive = T/C below 125% in these data.
Give your call using only these classes: active, inactive

input: Name the outcome recorded for Fc1ccc(NC(=S)NC2CC2)c(F)c1 in the assay.
output: inactive

input: Name the outcome recorded for S=c1s[nH]c2c1CCC2 in the assay.
output: inactive

input: Name the outcome recorded for CC(C)(C)N=C(CCN1CCOCC1)Nc1cccc(Cl)c1 in the assay.
output: inactive

input: Name the outcome recorded for NCc1c(Cl)c(Cl)c(CN)c(Cl)c1Cl in the assay.
output: inactive

input: Name the outcome recorded for O=S1(=O)C(c2cccc(F)c2)=C(O)c2cc3ccccc3nc21 in the assay.
output: inactive

input: Name the outcome recorded for CC(=O)Nc1cc(C(=O)O)cc(C(=O)O)c1 in the assay.
output: inactive

input: Name the outcome recorded for O=C(Nc1ccccc1C(=O)O)c1cc([N+](=O)[O-])cc([N+](=O)[O-])c1 in the assay.
output: inactive

====

System: P388 leukemia ip, CD2F1 mice, survival T/C
measurementDescription: NCI In Vivo Anticancer Drug Screen. Data for tumor model P388 Leukemia (intraperitoneal) in CD2F1 (CDF1) mice
measurementSetup: endpoint: median survival time; dose: 100.0 mg/kg/injection; schedule: Q01DX009 (ip); vehicle: other; higher = longer survival
Toxic doses and inconclusive results are not listed.
Quick reference for T/C among some compounds

Answered examples (4):
For this compound ( C=C(C)COc1ccc(C)cc1 ), measured T/C is 110 % of control

For this compound ( COc1ccc(CCNC(=O)Cc2ccc(OC)c(OCc3ccccc3)c2)cc1OC ), measured T/C is 89 % of control

For this compound ( COc1ccc(-c2nccc3cc(OC)c(OC)cc23)cc1O ), measured T/C is 86 % of control

For this compound ( Clc1ncnc2c1ncn2C1CCCCO1 (stereo not given) ), measured T/C is 95 % of control

Next compound, T/C to be filled in.
For this compound ( O=C(NNS(=O)(=O)CCC(NC(=O)OCc1ccccc1)C(=O)OCc1ccccc1)OCc1ccccc1 (stereo not given) ), measured T/C is 96 % of control

====

System: P388 leukemia ip, CD2F1 mice, survival T/C
measurementDescription: NCI In Vivo Anticancer Drug Screen. Data for tumor model P388 Leukemia (intraperitoneal) in CD2F1 (CDF1) mice
measurementSetup: endpoint: median survival time; dose: 100.0 mg/kg/injection; schedule: Q01DX001 (ip); vehicle: saline; higher = longer survival
Toxic doses and inconclusive results are not listed.
Quick reference for T/C among some compounds

Answered examples (5):
For this compound ( COCC1(C)CCCC2(C)C1CCC13CCC(OC(C)=O)CC12O3 (stereo unspecified) ), measured T/C is 102 % of control

For this compound ( CC(=O)NC1=C(O)C2C(c3ccc(C)cc3)C(C#N)C(=O)N2C1=O (stereo unspecified) ), measured T/C is 105 % of control

For this compound ( O=C(O)CN(CC(=O)O)C1CC1N(CC(=O)O)CC(=O)O (stereo unspecified) ), measured T/C is 96 % of control

For this compound ( Cc1ccc(S(=O)(=O)[n+]2ccccc2)cc1 ), measured T/C is 104 % of control

For this compound ( O=[N+]([O-])CC(O)C(Cl)(Cl)Cl (stereo unspecified) ), measured T/C is 107 % of control

Next compound, T/C to be filled in.
For this compound ( CC(O)(CO)C(C)(O)c1cn(O)c(=N)c(C(=O)OCc2ccccc2)n1 (stereo unspecified) ), measured T/C is 99 % of control

====

Tested on: P388 leukemia ip, CD2F1 mice, survival T/C
measurementDescription: NCI In Vivo Anticancer Drug Screen. Data for tumor model P388 Leukemia (intraperitoneal) in CD2F1 (CDF1) mice
measurementSetup: endpoint: median survival time; dose: 100.0 mg/kg/injection; schedule: Q04DX003 (ip); vehicle: Klucel (hydroxypropylcellulose) (HPC); higher = longer survival
Inconclusive results and toxic doses are left out.
Quick reference for T/C among some molecules

For this molecule ( NC(=O)c1[nH]c(N=Nc2ccc(S(N)(=O)=O)cc2)nc1N ), measured T/C is 100 % of control

====

Quick reference for T/C among some compounds
System: P388 leukemia ip, CD2F1 mice, survival T/C
measurementDescription: NCI In Vivo Anticancer Drug Screen. Data for tumor model P388 Leukemia (intraperitoneal) in CD2F1 (CDF1) mice
measurementSetup: endpoint: median survival time; dose: 3.13 mg/kg/injection; schedule: Q01DX005 (ip); vehicle: saline with Tween-80; higher = longer survival
Toxic doses and inconclusive results are not listed.

Answered examples (3):
For this compound ( O=c1[nH]nc2ccc(n[nH]c1=O)c1ccccc21 ), measured T/C is 104 % of control

For this compound ( N=C(N)N=Nc1cc(O)c(NN=C(N)N)cc1O ), measured T/C is 99 % of control

For this compound ( C/C(=N\NC(=S)N1CCN(C2CCCCC2)CC1)c1ccccn1 ), measured T/C is 106 % of control

Next compound, T/C to be filled in.
For this compound ( C/C(=N\NC(=S)N1CCN(c2ccccn2)CC1)c1ncccn1 ), measured T/C is 115 % of control

====

Quick reference for T/C among some compounds
Test system: P388 leukemia ip, CD2F1 mice, survival T/C
measurementDescription: NCI In Vivo Anticancer Drug Screen. Data for tumor model P388 Leukemia (intraperitoneal) in CD2F1 (CDF1) mice
measurementSetup: endpoint: median survival time; dose: 120.0 mg/kg/injection; schedule: Q01DX005 (ip); vehicle: saline with Tween-80; higher = longer survival
Toxic doses and inconclusive results are not listed.

Answered examples (10):
For this compound ( O=C1CSC(c2cccc(O)c2O)N1c1nncs1 (centres undefined) ), measured T/C is 96 % of control

For this compound ( COC(=O)/C(=C/c1ccccc1)N(C(C)=O)C(C)=O ), measured T/C is 105 % of control

For this compound ( COC(=O)/C=C/c1c2ccccc2cc2ccccc12 ), measured T/C is 96 % of control

For this compound ( O=C(NC1C=Nc2ccc(Cl)cc2NC1=O)c1ccccc1Cl (centres undefined) ), measured T/C is 95 % of control

For this compound ( CN(C)CCOc1cccc2c1CCC2 ), measured T/C is 87 % of control

For this compound ( O=S(=O)(c1ccccn1)c1nc2ccccc2s1 ), measured T/C is 90 % of control

For this compound ( CCN(CC)CCOC(=O)Nc1cc(C)cc(C)c1 ), measured T/C is 91 % of control

For this compound ( O=c1c2ccccc2c(Br)c(Br)c2ccccc12 ), measured T/C is 110 % of control

For this compound ( O=C(O)C(Cc1ccccc1)NC(c1ccccc1)P(=O)(O)O (centres undefined) ), measured T/C is 99 % of control

For this compound ( COC(=O)C12CN(C)CC(C(=O)OC)(C1=O)C(c1ccccn1)N(C)C2c1ccccn1 (centres undefined) ), measured T/C is 98 % of control

***
For this compound ( O=P1(NC23CC4CC(CC(C4)C2)C3)OC(CCl)=NC1c1ccc(C2N=C(CCl)OP2(=O)NC23CC4CC(CC(C4)C2)C3)cc1 (centres undefined) ), measured T/C is 98 % of control

For this compound ( CCOc1cccc(C=N)c1O ), measured T/C is 105 % of control

For this compound ( COC(=O)C(C)CC(C)(CC(C)(CC(C)(C)C(=O)OC)C(=O)OC)C(=O)OC (centres undefined) (tested in a mixture with another compound) ), measured T/C is 96 % of control

For this compound ( O=c1[nH]nc(NC2Nc3ccccc3N2)c2ccccc12 ), measured T/C is 96 % of control

For this compound ( O=C(Nc1ccc(Cl)cc1)Nc1nnc(-c2ccc(Cl)cc2Cl)o1 ), measured T/C is 86 % of control

For this compound ( FC(F)(F)c1cccc(COCCN2CCN(Cc3cccc(C(F)(F)F)c3)CC2)c1 ), measured T/C is 95 % of control

For this compound ( CN(C)Cc1[nH]c2ccccc2c1Sc1ccccc1 ), measured T/C is 119 % of control

For this compound ( Cc1n[nH]c(=O)c2[nH]c3ccccc3c12 ), measured T/C is 97 % of control

For this compound ( C=C(C)CC1(C)C(=O)CCC1O (centres undefined) ), measured T/C is 102 % of control

For this compound ( CC(=O)/C(=C\c1cccc(Cl)c1)C(=O)CCN(C)C ), measured T/C is 115 % of control

For this compound ( C[Si](C)(C)CNC(=S)S ), measured T/C is 115 % of control

For this compound ( CCOC(=O)CC/C(=C\NC(=O)c1ccccc1)NC(=O)c1ccccc1 ), measured T/C is 88 % of control

For this compound ( O=c1c2cncnc2sc2nccn12 ), measured T/C is 98 % of control

For this compound ( O=C(Nc1ccc(F)cc1)NN1CCOCC1 ), measured T/C is 104 % of control

The origin of these recorded values is PubChem BioAssay AID330.
